Sourced from paper PMC12209991

Assay: Multiple ascending dose (MAD) pharmacokinetics in healthy volunteers, BID for 14 days
Format: in vivo, human
Details: human, plasma, oral, 150 mg, 150 mg BID, Day 14, plasma; read-out: Cmax, geometric mean (Geo CV%)
measurement-type: Cmax (ng/mL)
# output: bare number, implied unit ng/mL

Ask: Read off the recorded Cmax for CC(=O)N1CCC(COc2cc(F)c3c(=O)[nH]c(CSC4CCOCC4)nc3c2)CC1 [RBN‐3143]
Result: 846

====

Test: Single ascending dose (SAD) pharmacokinetics in healthy volunteers
Type: in vivo, human
Conditions: human, plasma, po, 150 mg, single oral dose 150 mg, plasma; read-out: Cmax, geometric mean (Geo CV%)
measurement-type: Cmax (ng/mL)
Give a bare numeral; the unit ng/mL is implied.

Ask: Tell us which Cmax value is on record for `CC(=O)N1CCC(COc2cc(F)c3c(=O)[nH]c(CSC4CCOCC4)nc3c2)CC1`
Result: 653

====

Test: Single ascending dose (SAD) pharmacokinetics in healthy volunteers
Format: in vivo, human
Settings: human, plasma, po, 100 mg, single oral dose 100 mg, plasma; read-out: AUCinf, mean (SD)
measurement-type: AUC(0-inf) (ng·h/mL)
Write the number in ng·h/mL without appending the unit.

Ask: Return AUC(0-inf) (reported value) for this molecule: `CC(=O)N1CCC(COc2cc(F)c3c(=O)[nH]c(CSC4CCOCC4)nc3c2)CC1`
Result: 3610

====

Experiment: Multiple ascending dose (MAD) pharmacokinetics in healthy volunteers, BID for 14 days
Assay type: in vivo, human
Conditions: human, plasma, oral, 500 mg, 500 mg BID, Day 14, plasma; read-out: AUC12, mean (SD)
measurement-type: AUC (µg·h/mL)
A number alone suffices; assume µg·h/mL.

Ask: Provide only the value of recorded AUC for CC(=O)N1CCC(COc2cc(F)c3c(=O)[nH]c(CSC4CCOCC4)nc3c2)CC1 [RBN‐3143]
Result: 12.6

====

Assay: Food effect (high-fat breakfast) on RBN-3143 pharmacokinetics, cross-over
Type: in vivo, human
Settings: human, plasma, po, 500 mg, single 500 mg oral dose, fed (high-fat breakfast), N=13; read-out: AUClast, mean (SD)
measurement-type: AUC(0-t) (ng·h/mL)
Numbers only here, please. The scale is ng·h/mL.

Ask: Name the recorded AUC(0-t) of the item `CC(=O)N1CCC(COc2cc(F)c3c(=O)[nH]c(CSC4CCOCC4)nc3c2)CC1` in your answer.
Result: 19400

====

Assay: Single ascending dose (SAD) pharmacokinetics in healthy volunteers
Assay type: in vivo, human
Details: human, plasma, po, 600 mg, single oral dose 600 mg, plasma; read-out: AUCinf, geometric mean (Geo CV%)
measurement-type: AUC(0-inf) (ng·h/mL)
Answer format: numeric, ng·h/mL implied, no suffix.

Ask: Please supply the value of reported AUC(0-inf) for the item `CC(=O)N1CCC(COc2cc(F)c3c(=O)[nH]c(CSC4CCOCC4)nc3c2)CC1`
Result: 11700

====

Test: Single ascending dose (SAD) pharmacokinetics in healthy volunteers
Assay type: in vivo, human
Settings: human, plasma, po, 300 mg, single oral dose 300 mg, plasma; read-out: Tmax, median [min-max]
measurement-type: Tmax (h)
Numeric answer only, unit h assumed.

Ask: Assign Tmax to the following record: CC(=O)N1CCC(COc2cc(F)c3c(=O)[nH]c(CSC4CCOCC4)nc3c2)CC1 [RBN‐3143]
Result: 2

====

Tested on: CYP3A4
Assay: clinical
Conditions: human, in vivo, po, 2 mg, AUClast, mean (SD), midazolam 2 mg single oral dose without RBN-3143 (day 1), N=12
measurement-type: AUC(0-t) (ng·h/mL)
# output: bare number, implied unit ng·h/mL

Ask: Tell us which AUC(0-t) value is on record for Cc1ncc2n1-c1ccc(Cl)cc1C(c1ccccc1F)=NC2 [Midazolam, midazolam]
Result: 21.2

====

Assay: Single ascending dose (SAD) pharmacokinetics in healthy volunteers
Format: in vivo, human
Settings: human, plasma, po, 300 mg, single oral dose 300 mg, plasma; read-out: AUCinf, geometric mean (Geo CV%)
measurement-type: AUC(0-inf)
Number plus unit, in that order.

Ask: Tell me its AUC(0-inf) given CC(=O)N1CCC(COc2cc(F)c3c(=O)[nH]c(CSC4CCOCC4)nc3c2)CC1 [RBN‐3143] as the entry.
Result: 6230 ng·h/mL

====

Assay: Multiple ascending dose (MAD) pharmacokinetics in healthy volunteers, BID for 14 days
Assay type: in vivo, human
Settings: human, plasma, oral, 300 mg, 300 mg BID, Day 1, plasma; read-out: Tmax, median [min-max]
measurement-type: Tmax
Please state the number and follow it with the unit.

Ask: Give the measured Tmax for `CC(=O)N1CCC(COc2cc(F)c3c(=O)[nH]c(CSC4CCOCC4)nc3c2)CC1`
Result: 2.5 h

====

Assay: Multiple ascending dose (MAD) pharmacokinetics in healthy volunteers, BID for 14 days
Assay type: in vivo, human
Conditions: human, plasma, oral, 150 mg, 150 mg BID, Day 1, plasma; read-out: AUC12, geometric mean (Geo CV%)
measurement-type: AUC (ng·h/mL)
Use ng·h/mL as the unit, but write only the number.

Ask: Provide only the value of recorded AUC for `CC(=O)N1CCC(COc2cc(F)c3c(=O)[nH]c(CSC4CCOCC4)nc3c2)CC1`
Result: 3470

====

Assay: Multiple ascending dose (MAD) pharmacokinetics in healthy volunteers, BID for 14 days
Type: in vivo, human
Conditions: human, plasma, oral, 150 mg, 150 mg BID, Day 14, plasma; read-out: AUC12, mean (SD)
measurement-type: AUC (ng·h/mL)
Field format: number, assumed ng·h/mL, no unit text.

Ask: Look up and report measured AUC for this entry: `CC(=O)N1CCC(COc2cc(F)c3c(=O)[nH]c(CSC4CCOCC4)nc3c2)CC1`
Result: 5660

====

Experiment: Pantoprazole (PPI) effect on RBN-3143 pharmacokinetics, cross-over
Format: in vivo, human
Details: human, plasma, po, single 500 mg oral dose, fasted with pantoprazole 40 mg QD, N=12, linear mixed-effects model; read-out: Cmax, GLSM
measurement-type: Cmax
Quote the value and follow it with the unit of measurement.

Ask: Find the measured Cmax of CC(=O)N1CCC(COc2cc(F)c3c(=O)[nH]c(CSC4CCOCC4)nc3c2)CC1 [RBN‐3143] and report it.
Result: 1560 ng/mL

====

Experiment: Single ascending dose (SAD) pharmacokinetics in healthy volunteers
Format: in vivo, human
Conditions: human, plasma, po, 600 mg, single oral dose 600 mg, plasma; read-out: Tmax, median [min-max]
Experimental: Analytes were separated by HPLC on a Waters Atlantis T3 analytical column using a gradient mobile phase (mobile phase A: 10% acetonitrile, 90% water, 10 mM ammonium acetate, 0.3% formic acid; mobile phase B: 90% acetonitrile, 10% water, 10 mM ammonium acetate, 0.3% formic acid) run at 0.4 mL/min with initial mobile phase B concentration of 30%.
measurement-type: Tmax

Ask: Find the measured Tmax of `CC(=O)N1CCC(COc2cc(F)c3c(=O)[nH]c(CSC4CCOCC4)nc3c2)CC1` and report it.
Result: 1.75 h

====

Test: Food effect (high-fat breakfast) on RBN-3143 pharmacokinetics, cross-over
Type: in vivo, human
Conditions: human, plasma, po, 500 mg, single 500 mg oral dose, fed (high-fat breakfast), N=13; read-out: AUClast, geometric mean (Geo CV%)
measurement-type: AUC(0-t) (ng·h/mL)
Express the result in ng·h/mL but write the number alone.

Ask: Look up and report measured AUC(0-t) for this entry: `CC(=O)N1CCC(COc2cc(F)c3c(=O)[nH]c(CSC4CCOCC4)nc3c2)CC1`
Result: 18600

====

Tested on: CYP3A4
Test: clinical
Conditions: human, in vivo, po, Cmax, geometric mean (Geo CV%), midazolam 2 mg single oral dose with RBN-3143 300 mg BID at steady state (day 16), N=12
measurement-type: Cmax
Please give the number followed by its unit.

Ask: Note Cmax for the compound shown: `Cc1ncc2n1-c1ccc(Cl)cc1C(c1ccccc1F)=NC2`
Result: 9.11 ng/mL

====

Assay: Food effect (high-fat breakfast) on RBN-3143 pharmacokinetics, cross-over
Format: in vivo, human
Conditions: human, plasma, po, 500 mg, single 500 mg oral dose, fasted, N=13; read-out: Cmax, mean (SD)
measurement-type: Cmax
Give your result as the value with the unit written after it.

Ask: Specify measured Cmax for `CC(=O)N1CCC(COc2cc(F)c3c(=O)[nH]c(CSC4CCOCC4)nc3c2)CC1` .
Result: 1600 ng/mL

====

Experiment: Pantoprazole (PPI) effect on RBN-3143 pharmacokinetics, cross-over
Format: in vivo, human
Conditions: human, plasma, po, 500 mg, single 500 mg oral dose, fasted without pantoprazole, N=12, linear mixed-effects model; read-out: Cmax, GLSM
measurement-type: Cmax (ng/mL)
API: value field is a number in ng/mL; no unit string.

Ask: Give Cmax for the following compound: CC(=O)N1CCC(COc2cc(F)c3c(=O)[nH]c(CSC4CCOCC4)nc3c2)CC1 [RBN‐3143]
Result: 1530
